Cited source: PubChem BioAssay AID493248

biological target: FAD-linked sulfhydryl oxidase ALR (Homo sapiens); experiment: inhibitors of human ALR sulfhydryl oxidase, dose response, biochemical, H2O2 detection, luminescence, cherry-pick (AID 493248); settings: purified ALR, DTT oxidation, H2O2 HRP-luminol luminescence; at 10 µM (top of the series)
About 1,400 (61%) of roughly 2,300 compounds were called active. Roughly 7% stayed inconclusive and do not appear here. The set was probably picked from earlier hits. The list is a sample of the results. Entries with a potency or affinity are not part of this list.
READOUT: activity change, negative = inhibition (%)
Answers are plain numbers, in %.

Use these answered entries as a reference point.
Input: Consider the molecule c1ccc(CCCN2CCN(c3ccccc3)CC2)cc1 and give its measured activity change, negative = inhibition.
Output: -9.66

Input: Consider the molecule COc1ccc(N=C2C(=O)N3CCCc4cccc2c43)cc1 and give its measured activity change, negative = inhibition.
Output: -15.6

Input: Consider the molecule CCCCN(CCCC)c1ccc(C(=O)c2ccccc2C(=O)O)c(O)c1 and give its measured activity change, negative = inhibition.
Output: -56.2

Input: Consider the molecule O=C(CN1C(=O)CSC1=O)N1CCCC(Nc2ccc(F)cc2)C1 (centres undefined) and give its measured activity change, negative = inhibition.
Output: -78.4

Input: Consider the molecule S=c1[nH]ncn1NCc1ccc(Cl)cc1Cl and give its measured activity change, negative = inhibition.
Output: -23.3

Input: Consider the molecule COc1ccc(N=C2C(=O)Nc3ccccc32)cc1 and give its measured activity change, negative = inhibition.
Output: -24.8

Input: Consider the molecule Cc1nn(C)c(C)c1Sc1ccccc1N and give its measured activity change, negative = inhibition.
Output: -14.3

Input: Consider the molecule COc1ccc(CNc2ccccc2)cc1Br and give its measured activity change, negative = inhibition.
Output: -3.19

Input: Consider the molecule CCCCCn1c(Br)nc2c1c(=O)n(CC(N)=O)c(=O)n2C and give its measured activity change, negative = inhibition.
Output: -20.4

Input: Consider the molecule S=c1[nH]nc(-c2c[nH]c3ccccc23)o1 and give its measured activity change, negative = inhibition.
Output: -89

Parameters: items (list). Returns: activity change, negative = inhibition for each item.
1. CN(C)c1ccc(/C=N/NC(=O)c2cccc(N3CCCC3=O)c2)cc1
2. CC(=O)Nc1ccc(NCc2ccc(C)s2)cc1

Output:
[-16.6, -11.5]

Parameters: items (list). Returns: activity change, negative = inhibition for each item.
1. CCN(CCNC(=O)CN(C)S(=O)(=O)c1cccc2nsnc12)c1ccccc1
2. COc1cccc(NC(=O)c2cc(OC)c(OC)c(OC)c2Br)c1
3. CN(C)CCC(=O)N1c2ccccc2Sc2ccc(C(F)(F)F)cc21
4. O=C(O)c1ccccc1CSC1=NCCS1

Output:
1. -59.9
2. 4.6
3. -13.8
4. -98.5

Parameters: items (list). Returns: activity change, negative = inhibition for each item.
1. Cc1nc(NS(=O)(=O)c2ccccc2C)c2c3c(sc2n1)CCC3
2. COc1cc(/C=C/c2sc3ccccc3[n+]2CCCS(=O)(=O)[O-])ccc1O
3. COc1cc(OC)cc(C(=O)N2CCC(N3CCN(c4ccccc4)CC3)CC2)c1
4. COc1ccc(CN2C(=O)C3C4C=CC(C4)C3C2=O)cc1 (centres undefined)
5. CCc1cc2c3c(c1)C(C)CC(C)(C)N3C(=O)/C2=C1\SC(=O)NC1=O (centres undefined)
6. CCCN(Cc1ccc(N(CC)CC)cc1)CC1CC1
7. CC(C)(C)c1ccc(Oc2ccc(N)cn2)cc1
8. COc1ccccc1N(Cc1ccccc1)S(=O)(=O)c1cc(C(=O)O)ccc1Cl

Output:
1. -0.709
2. -105
3. -61.4
4. 24.9
5. -7.31
6. -0.019
7. 49.2
8. -48.6
